Molecular target: T1, hPRLR.mmh (soluble monomeric human PRLR) (human)
T1 construct: soluble monomeric PRLR protein
T1 chain: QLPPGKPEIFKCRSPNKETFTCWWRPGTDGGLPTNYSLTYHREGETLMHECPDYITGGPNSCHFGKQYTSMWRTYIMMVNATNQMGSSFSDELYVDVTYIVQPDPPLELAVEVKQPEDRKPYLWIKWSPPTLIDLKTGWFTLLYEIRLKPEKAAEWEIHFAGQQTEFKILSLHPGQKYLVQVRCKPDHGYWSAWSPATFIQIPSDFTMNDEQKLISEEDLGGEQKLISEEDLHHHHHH
Assay: SPR (Biacore), antibody capture, 37 C
Values of Kd strictly less than 3 nM map to yes, and values of at least 3 nM map to no.

Hello, I'm reviewing records and need to know if Kd of H1H6953N (antibody, human IgG1, V domains shown, also called H1M6953N) VH: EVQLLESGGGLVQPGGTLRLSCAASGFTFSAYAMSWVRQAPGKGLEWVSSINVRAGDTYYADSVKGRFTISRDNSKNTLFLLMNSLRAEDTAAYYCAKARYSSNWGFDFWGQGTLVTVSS VL: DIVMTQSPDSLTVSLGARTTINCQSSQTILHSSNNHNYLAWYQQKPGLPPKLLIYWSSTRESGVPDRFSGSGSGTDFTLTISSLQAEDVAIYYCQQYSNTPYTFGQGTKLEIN is below 3 nM. Could you check?
yes

Hello, I'm reviewing records and need to know if Kd of H1H6960N (antibody, human IgG1, V domains shown, also called H2M6960N) VH: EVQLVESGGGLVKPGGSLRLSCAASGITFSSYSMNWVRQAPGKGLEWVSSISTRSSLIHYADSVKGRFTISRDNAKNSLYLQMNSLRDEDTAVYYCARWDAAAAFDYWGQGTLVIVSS VL: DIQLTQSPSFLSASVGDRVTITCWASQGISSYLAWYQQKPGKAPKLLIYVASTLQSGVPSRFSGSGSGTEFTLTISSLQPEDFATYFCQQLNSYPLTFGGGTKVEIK is below 3 nM. Could you check?
no

Hello, I'm reviewing records and need to know if Kd of H1H6958N2 (antibody, human IgG1, V domains shown, also called H2M6958N2) VH: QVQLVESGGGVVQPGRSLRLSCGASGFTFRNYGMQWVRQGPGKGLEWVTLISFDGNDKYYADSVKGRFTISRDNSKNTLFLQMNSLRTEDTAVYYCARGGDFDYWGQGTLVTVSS VL: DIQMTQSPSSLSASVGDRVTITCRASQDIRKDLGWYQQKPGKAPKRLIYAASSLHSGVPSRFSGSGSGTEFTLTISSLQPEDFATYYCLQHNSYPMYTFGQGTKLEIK is below 3 nM. Could you check?
no

Hello, I'm reviewing records and need to know if Kd of H1H6797P (antibody, human IgG1, V domains shown, human IgG1 Fc (H1H)) VH: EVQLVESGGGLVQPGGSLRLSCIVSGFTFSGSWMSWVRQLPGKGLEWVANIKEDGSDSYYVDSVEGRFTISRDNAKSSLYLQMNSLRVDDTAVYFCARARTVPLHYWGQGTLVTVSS VL: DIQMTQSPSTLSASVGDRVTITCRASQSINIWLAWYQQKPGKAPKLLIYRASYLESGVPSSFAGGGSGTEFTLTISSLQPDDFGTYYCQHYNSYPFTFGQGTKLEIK is below 3 nM. Could you check?
no
